Known %Inh of a selection of compounds
- Tested on: MAST1;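 further: KINOMEscan kinase panel screen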
- Conditions: concentration: 1 μM, replicates: in singlicate; n = 1
Numeric answer only, unit % assumed.

Use these answered entries as a reference point.
{"Compound": "COc1cc(Nc2nccc(N3CCC(NC(=O)C(C)c4ccc(Cl)cc4)C3)n2)cc(OC)c1OC (stereo not drawn)", "Units of measure": "%", "%Inh": 0}
{"Compound": "Nc1ncnc2c1ncn2-c1cccc2ccccc12", "Units of measure": "%", "%Inh": 53}
{"Compound": "O=C(NCCNc1ccnc(Nc2ccc(F)cc2)n1)Nc1ccc2c(c1)OCO2", "Units of measure": "%", "%Inh": 4}
{"Compound": "O=C(Nc1ccc2c(c1)OCO2)NC1CCN(c2ccnc(NCc3ccc(F)cc3)n2)CC1", "Units of measure": "%", "%Inh": 0}

%Inh reading for COc1cc2ncn(-c3cc(OCc4ccncc4)c(C(N)=O)s3)c2cc1OC : 0

%Inh reading for COC(=O)c1c(-c2ccccc2)c2cc(C)ccc2c(=O)n1Cc1ccccc1 : 0

%Inh reading for O=C(NCc1cccs1)c1cc(C(=O)c2c(Cl)cccc2Cl)c[nH]1 : 0

%Inh reading for O=C(Nc1n[nH]c2cc(-c3ccccc3F)ccc12)C1CC1 : 52

%Inh reading for CCC(=O)c1c(-c2ccccc2)c2cc(Cl)ccc2c(=O)n1Cc1cc(C(=O)NC2CC2)n(C)n1 : 47

%Inh reading for COc1ccc(-c2cc3c(C)nc(N)nc3n([C@H]3CC[C@H](O)CC3)c2=O)cn1 : 0

%Inh reading for CCc1nc(-c2cccc(C)c2)c(-c2ccncc2)s1 : 0

%Inh reading for COc1cc2nccc(Nc3cccc(Oc4ccccc4)c3)c2cc1OC.Cl : 7

%Inh reading for COc1cc2nccc(Nc3ccc(OCc4ccc(NC(C)=O)cc4)cc3)c2cc1OC.Cl : 0

%Inh reading for CCC(=O)c1c(-c2ccccc2)c2cc(Cl)ccc2c(=O)n1Cc1cc(S(C)(=O)=O)n(CC(F)F)n1 : 0

%Inh reading for Cc1ccccc1COc1cc(-n2cnc3cc(Cl)ccc32)sc1C(N)=O : 0

%Inh reading for COC(=O)c1c(-c2ccccc2)c2cc(Br)ccc2c(=O)n1Cc1ccc(S(C)(=O)=O)cc1 : 21

%Inh reading for Cc1cccc(-c2cc(-c3c[nH]nc3-c3ccccn3)ccn2)c1 : 0

%Inh reading for Cl.NS(=O)(=O)c1cccc(Nc2cc(-c3ccc(F)cc3)n[nH]2)c1 : 9

Value source: paper PMC5540273
